Each entry below lists one item and its recorded pIC50 value.
- system tested: Vascular endothelial growth factor receptor 2 (Homo sapiens)
- Sequence (P35968 whole entry): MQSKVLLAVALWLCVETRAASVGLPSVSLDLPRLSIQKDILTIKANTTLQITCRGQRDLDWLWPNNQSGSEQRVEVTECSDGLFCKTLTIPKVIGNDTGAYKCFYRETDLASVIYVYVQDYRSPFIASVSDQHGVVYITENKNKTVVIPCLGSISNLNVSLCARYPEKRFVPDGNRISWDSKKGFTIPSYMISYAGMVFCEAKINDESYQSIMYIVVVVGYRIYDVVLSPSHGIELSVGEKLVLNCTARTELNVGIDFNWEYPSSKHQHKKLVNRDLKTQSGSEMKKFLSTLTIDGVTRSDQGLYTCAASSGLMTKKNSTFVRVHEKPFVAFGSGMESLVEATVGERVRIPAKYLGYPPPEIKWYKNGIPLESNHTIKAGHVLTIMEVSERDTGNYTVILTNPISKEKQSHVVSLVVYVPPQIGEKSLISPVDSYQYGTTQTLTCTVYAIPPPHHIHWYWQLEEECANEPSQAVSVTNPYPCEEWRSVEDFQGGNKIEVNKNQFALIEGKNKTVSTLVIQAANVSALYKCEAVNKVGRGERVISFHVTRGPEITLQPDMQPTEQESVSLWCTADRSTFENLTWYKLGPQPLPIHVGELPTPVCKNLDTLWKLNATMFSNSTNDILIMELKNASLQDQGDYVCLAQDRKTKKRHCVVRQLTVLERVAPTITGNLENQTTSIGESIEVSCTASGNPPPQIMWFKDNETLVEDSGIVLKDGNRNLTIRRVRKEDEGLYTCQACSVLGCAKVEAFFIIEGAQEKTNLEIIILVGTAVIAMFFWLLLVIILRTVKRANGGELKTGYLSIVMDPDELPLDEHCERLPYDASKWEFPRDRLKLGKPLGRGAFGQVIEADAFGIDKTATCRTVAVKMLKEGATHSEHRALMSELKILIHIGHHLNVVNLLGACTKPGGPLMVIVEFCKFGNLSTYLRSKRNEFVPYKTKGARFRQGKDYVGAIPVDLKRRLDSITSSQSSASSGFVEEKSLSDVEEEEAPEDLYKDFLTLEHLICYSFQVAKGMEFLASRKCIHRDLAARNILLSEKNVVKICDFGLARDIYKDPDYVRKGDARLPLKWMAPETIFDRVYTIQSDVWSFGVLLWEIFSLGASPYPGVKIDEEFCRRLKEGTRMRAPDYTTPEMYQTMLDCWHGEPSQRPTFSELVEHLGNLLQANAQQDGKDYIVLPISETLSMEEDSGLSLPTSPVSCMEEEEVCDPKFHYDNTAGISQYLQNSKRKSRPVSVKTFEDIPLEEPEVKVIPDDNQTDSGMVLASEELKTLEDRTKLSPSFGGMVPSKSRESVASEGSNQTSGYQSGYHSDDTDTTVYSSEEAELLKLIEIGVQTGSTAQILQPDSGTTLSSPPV
pIC50: −log10 of the molar value.

{"smiles str": "CCN1C(=O)CS/C1=N/Nc1nncc2ccccc12", "system tested": "Vascular endothelial growth factor receptor 2 (Homo sapiens)", "pIC50": 8.44}
{"smiles str": "Clc1ccc(C(/C=C/c2ccccc2)=N\\Nc2nncc3ccccc23)cc1", "system tested": "Vascular endothelial growth factor receptor 2 (Homo sapiens)", "pIC50": 9.16}
{"smiles str": "COc1ccc(NC(=S)NNc2nncc3ccccc23)cc1", "system tested": "Vascular endothelial growth factor receptor 2 (Homo sapiens)", "pIC50": 8.24}
{"smiles str": "CCCCNC(=S)NNc1nncc2ccccc12", "system tested": "Vascular endothelial growth factor receptor 2 (Homo sapiens)", "pIC50": 8.35}
{"smiles str": "C(=C\\c1ccccc1)/C(=N/Nc1nncc2ccccc12)c1ccccc1", "system tested": "Vascular endothelial growth factor receptor 2 (Homo sapiens)", "pIC50": 9.38}
{"smiles str": "Cc1cc(NS(=O)(=O)c2ccc(Nc3nncc4ccccc34)cc2)no1", "system tested": "Vascular endothelial growth factor receptor 2 (Homo sapiens)", "pIC50": 8.01}
